All values here come from patent US8551963B2.

EXPERIMENTAL TARGET: UniProtKB P08183
TEST: Digoxin bidirectional MDR1-MDCK permeability, Compound I-1 as an inhibitor
REPORTED CONDITIONS: dog, MDCK-MDR1, pH 7.4, Digoxin PeBL→AP, preliminary experiment, Digoxin 1 μM alone, Std
PROPERTY LABEL: Papp B→A at 1 μM (×10⁻⁶ cm/s)

| COMPOUND | NUMBER |
| --- | --- |
| C[C@H]1O[C@@H](O[C@H]2[C@@H](O)C[C@H](O[C@H]3[C@@H](O)C[C@H](O[C@H]4CC[C@@]5(C)[C@H](CC[C@@H]6[C@@H]5C[C@@H](O)[C@]5(C)[C@@H](C7=CC(=O)OC7)CC[C@]65O)C4)O[C@@H]3C)O[C@@H]2C)C[C@H](O)[C@@H]1O [Digoxin, reference compound] | 20 |

----------
EXPERIMENTAL TARGET: UniProtKB P33261
Sequence (P33261 whole entry): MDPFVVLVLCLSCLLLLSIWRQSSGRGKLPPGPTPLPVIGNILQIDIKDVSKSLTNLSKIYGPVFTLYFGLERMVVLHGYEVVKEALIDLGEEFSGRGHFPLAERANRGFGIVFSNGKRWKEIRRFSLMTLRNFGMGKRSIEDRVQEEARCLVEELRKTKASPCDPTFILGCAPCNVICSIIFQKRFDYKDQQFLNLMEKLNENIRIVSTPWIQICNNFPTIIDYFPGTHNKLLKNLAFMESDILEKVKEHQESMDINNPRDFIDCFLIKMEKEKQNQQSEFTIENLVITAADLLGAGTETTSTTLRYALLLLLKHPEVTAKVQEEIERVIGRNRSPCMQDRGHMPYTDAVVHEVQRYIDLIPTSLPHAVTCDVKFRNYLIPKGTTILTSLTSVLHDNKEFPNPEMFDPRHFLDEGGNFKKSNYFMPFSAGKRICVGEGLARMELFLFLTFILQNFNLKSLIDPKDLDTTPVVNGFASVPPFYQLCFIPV

| SMILES REPR | UNIT | IC50 |
| --- | --- | --- |
| CC(C)(CO)c1cc(NC(=O)Nc2ccc(-c3cn4c(n3)sc3cc(OCCN5CCOCC5)ccc34)cc2)no1 | µM | 15.5 |

----------
Test system: P-glycoprotein (MDR1)
TEST: Bidirectional MDR1-MDCK permeability, Compound I-1 as a substrate
REPORTED CONDITIONS: dog, MDCK-MDR1, pH 7.4, PeAP→BL, Surf.

| SMILES REPR | EXPERIMENTAL TARGET | UNIT | Papp A→B at 5 μM |
| --- | --- | --- | --- |
| CC(C)(CO)c1cc(NC(=O)Nc2ccc(-c3cn4c(n3)sc3cc(OCCN5CCOCC5)ccc34)cc2)no1 | P-glycoprotein (MDR1) | ×10⁻⁶ cm/s | 5.1 |

----------
TEST: in vitro
REPORTED CONDITIONS: rat, microsomes, pH 7.4

| COMPOUND | microsomal CLint at 1 μM |
| --- | --- |
| CC(C)(C)c1cc(NC(=O)Nc2ccc(-c3cn4c(n3)sc3cc(OCCN5CCOCC5)ccc34)cc2)no1 [Compound IA] | < 23 µL/min/mg |

----------
EXPERIMENTAL TARGET: FLT3 (Homo sapiens (Human), UniProt P36888)
PROPERTY LABEL: Kd (nM)

| SMILES REPR | NUMBER |
| --- | --- |
| CC(C)(CO)c1cc(NC(=O)Nc2ccc(-c3cn4c(n3)sc3cc(OCCN5CCOCC5)ccc34)cc2)no1 | 0.68 |

----------
TEST: Microsomal stability and metabolic turnover, pooled Cynomolgus monkey liver microsomes
REPORTED CONDITIONS: pH 7.4
PROPERTY LABEL: half-life at 1 μM (min)

| MOLECULE | UNIT | NUMBER |
| --- | --- | --- |
| C[C@]12CC[C@H]3[C@@H](CCC4=CC(=O)CC[C@@]43C)[C@@H]1CC[C@@H]2O [Testosterone] | min | 3 |

----------
TEST: Pharmacokinetic study in rats, intravenous and oral
Type: in vivo
REPORTED CONDITIONS: male, Sprague-Dawley, plasma; rat, intravenous, 1 mg/kg

| SMILES REPR | AUC(0-inf), µM·h |
| --- | --- |
| CC(C)(CO)c1cc(NC(=O)Nc2ccc(-c3cn4c(n3)sc3cc(OCCN5CCOCC5)ccc34)cc2)no1 | 3.29 |

----------
EXPERIMENTAL TARGET: CYP3A4 (Homo sapiens (Human), UniProt P08684)
Sequence (P08684 whole entry): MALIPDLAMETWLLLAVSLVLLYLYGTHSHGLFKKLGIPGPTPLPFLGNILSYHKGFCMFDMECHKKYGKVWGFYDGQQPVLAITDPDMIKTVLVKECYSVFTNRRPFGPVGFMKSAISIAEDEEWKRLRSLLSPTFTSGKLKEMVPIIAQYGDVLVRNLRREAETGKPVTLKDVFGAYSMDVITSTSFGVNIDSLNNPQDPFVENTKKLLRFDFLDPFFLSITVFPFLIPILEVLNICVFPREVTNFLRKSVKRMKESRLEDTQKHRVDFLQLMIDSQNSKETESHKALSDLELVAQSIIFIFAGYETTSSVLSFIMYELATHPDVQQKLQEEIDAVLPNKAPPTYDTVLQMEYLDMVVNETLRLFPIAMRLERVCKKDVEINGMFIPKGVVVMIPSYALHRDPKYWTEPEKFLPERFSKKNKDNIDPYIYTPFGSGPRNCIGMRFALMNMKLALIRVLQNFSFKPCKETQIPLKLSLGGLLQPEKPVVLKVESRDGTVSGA
TEST: Inhibitory constant KI in human liver microsomes, CYP3A4
Assay type: in vitro ADME
REPORTED CONDITIONS: CYP3A4, global non-linear regression; read-out: Best Fit KI′, Uncompetitive
PROPERTY LABEL: Ki (µM)

| SMILES REPR | EXPERIMENTAL TARGET | UNIT | NUMBER |
| --- | --- | --- | --- |
| CC(C)(CO)c1cc(NC(=O)Nc2ccc(-c3cn4c(n3)sc3cc(OCCN5CCOCC5)ccc34)cc2)no1 | CYP3A4 (Homo sapiens (Human), UniProt P08684) | µM | 36 |

----------
TEST: in vitro
REPORTED CONDITIONS: monkey, microsomes, pH 7.4

| COMPOUND | half-life at 1 μM |
| --- | --- |
| CC(C)(C)c1cc(NC(=O)Nc2ccc(-c3cn4c(n3)sc3cc(OCCN5CCOCC5)ccc34)cc2)no1 [Compound IA] | 19 min |

----------
EXPERIMENTAL TARGET: P-Glycoprotein (Homo sapiens (Human), UniProt P08183)
Sequence (P08183 whole entry): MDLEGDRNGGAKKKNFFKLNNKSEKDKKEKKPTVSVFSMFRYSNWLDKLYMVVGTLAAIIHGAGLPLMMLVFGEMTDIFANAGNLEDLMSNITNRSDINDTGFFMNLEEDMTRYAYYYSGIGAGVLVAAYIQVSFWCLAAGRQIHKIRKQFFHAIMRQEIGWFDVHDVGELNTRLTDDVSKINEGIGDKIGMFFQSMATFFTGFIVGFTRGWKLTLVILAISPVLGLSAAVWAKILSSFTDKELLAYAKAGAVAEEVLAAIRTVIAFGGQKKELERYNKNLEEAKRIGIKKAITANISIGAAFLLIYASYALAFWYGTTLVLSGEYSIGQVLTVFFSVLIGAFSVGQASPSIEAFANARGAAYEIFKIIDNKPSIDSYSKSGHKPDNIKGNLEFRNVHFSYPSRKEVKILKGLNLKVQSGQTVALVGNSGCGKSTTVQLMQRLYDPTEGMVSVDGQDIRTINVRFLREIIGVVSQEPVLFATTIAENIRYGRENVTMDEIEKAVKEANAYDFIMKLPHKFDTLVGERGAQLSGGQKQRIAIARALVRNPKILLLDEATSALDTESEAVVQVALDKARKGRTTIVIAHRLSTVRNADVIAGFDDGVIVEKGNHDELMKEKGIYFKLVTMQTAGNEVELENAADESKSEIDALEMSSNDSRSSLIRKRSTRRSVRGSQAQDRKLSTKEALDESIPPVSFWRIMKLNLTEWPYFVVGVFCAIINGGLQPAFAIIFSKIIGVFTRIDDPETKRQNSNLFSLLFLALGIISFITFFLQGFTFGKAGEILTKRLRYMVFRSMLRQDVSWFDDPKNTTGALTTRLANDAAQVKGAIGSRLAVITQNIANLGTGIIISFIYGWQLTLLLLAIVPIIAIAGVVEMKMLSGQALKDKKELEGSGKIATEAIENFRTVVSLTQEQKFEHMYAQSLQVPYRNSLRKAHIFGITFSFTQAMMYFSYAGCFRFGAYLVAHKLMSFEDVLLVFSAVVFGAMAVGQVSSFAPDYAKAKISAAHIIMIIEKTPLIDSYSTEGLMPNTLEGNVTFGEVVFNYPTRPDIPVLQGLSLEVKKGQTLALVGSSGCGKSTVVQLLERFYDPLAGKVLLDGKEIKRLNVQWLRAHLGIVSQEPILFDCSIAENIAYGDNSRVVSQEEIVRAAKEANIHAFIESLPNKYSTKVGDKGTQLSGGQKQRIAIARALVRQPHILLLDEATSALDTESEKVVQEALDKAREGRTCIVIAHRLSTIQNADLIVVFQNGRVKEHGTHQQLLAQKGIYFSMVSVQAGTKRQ
TEST: Digoxin bidirectional MDR1-MDCK permeability, Compound I-1 as an inhibitor
REPORTED CONDITIONS: dog, MDCK-MDR1, pH 7.4, Digoxin PeBL→AP, Table 17, Digoxin 1 μM alone, Surf.

| MOLECULE | Papp B→A at 1 μM |
| --- | --- |
| C[C@H]1O[C@@H](O[C@H]2[C@@H](O)C[C@H](O[C@H]3[C@@H](O)C[C@H](O[C@H]4CC[C@@]5(C)[C@H](CC[C@@H]6[C@@H]5C[C@@H](O)[C@]5(C)[C@@H](C7=CC(=O)OC7)CC[C@]65O)C4)O[C@@H]3C)O[C@@H]2C)C[C@H](O)[C@@H]1O [Digoxin, reference compound] | 4.93 ×10⁻⁶ cm/s |

----------
EXPERIMENTAL TARGET: FLT3 (D835H) (Homo sapiens (Human), UniProt P36888, D835H)
TEST: biochemical

| SMILES REPR | UNIT | Kd |
| --- | --- | --- |
| CC(C)(CO)c1cc(NC(=O)Nc2ccc(-c3cn4c(n3)sc3cc(OCCN5CCOCC5)ccc34)cc2)no1 | nM | 1.9 |

----------
TEST: Pharmacokinetic study in rats, intravenous and oral
Assay type: in vivo
REPORTED CONDITIONS: male, Sprague-Dawley, plasma; rat, oral, 10 mg/kg; calculated with the dose normalized AUC0-inf IV data; read-out: F (absolute bioavailability)
PROPERTY LABEL: bioavailability (%)

| MOLECULE | PROPERTY LABEL | UNIT | NUMBER |
| --- | --- | --- | --- |
| CC(C)(CO)c1cc(NC(=O)Nc2ccc(-c3cn4c(n3)sc3cc(OCCN5CCOCC5)ccc34)cc2)no1 [Compound I-1] | bioavailability | % | 6.9 |

----------
EXPERIMENTAL TARGET: CYP3A4 (Homo sapiens (Human))
TEST: Inhibitory constant KI in human liver microsomes, CYP3A4
Format: in vitro ADME
REPORTED CONDITIONS: CYP3A4, global non-linear regression; read-out: Best Fit KI, Competitive

| COMPOUND | UNIT | Ki |
| --- | --- | --- |
| CC(C)(CO)c1cc(NC(=O)Nc2ccc(-c3cn4c(n3)sc3cc(OCCN5CCOCC5)ccc34)cc2)no1 [Compound I-1] | µM | 13.1 |

----------
TEST: in vitro
REPORTED CONDITIONS: rat, microsomes, pH 7.4

| COMPOUND | half-life at 1 μM |
| --- | --- |
| CC(C)(C)c1cc(NC(=O)Nc2ccc(-c3cn4c(n3)sc3cc(OCCN5CCOCC5)ccc34)cc2)no1 [Compound IA] | > 1 h |

----------
TEST: In vivo clearance, dog
REPORTED CONDITIONS: in vivo, read-out: In Vivo t1/2 (converted)

| COMPOUND | half-life |
| --- | --- |
| CC(C)(C)c1cc(NC(=O)Nc2ccc(-c3cn4c(n3)sc3cc(OCCN5CCOCC5)ccc34)cc2)no1 [Compound IA] | 6.1 h |

----------
TEST: Pharmacokinetic study in rats, intravenous and oral
Type: in vivo
REPORTED CONDITIONS: male, Sprague-Dawley, plasma; rat, intravenous, 1 mg/kg
PROPERTY LABEL: clearance (mL/min/kg)

| SMILES REPR | PROPERTY LABEL | NUMBER |
| --- | --- | --- |
| CC(C)(CO)c1cc(NC(=O)Nc2ccc(-c3cn4c(n3)sc3cc(OCCN5CCOCC5)ccc34)cc2)no1 | clearance | 8.83 |

----------
TEST: Pharmacokinetic study in rats, intravenous and oral
Type: in vivo
REPORTED CONDITIONS: male, Sprague-Dawley, plasma; rat, oral, 10 mg/kg
PROPERTY LABEL: Cmax (nM)

| COMPOUND | UNIT | NUMBER |
| --- | --- | --- |
| CC(C)(CO)c1cc(NC(=O)Nc2ccc(-c3cn4c(n3)sc3cc(OCCN5CCOCC5)ccc34)cc2)no1 [Compound I-1] | nM | 360 |

----------
TEST: Pharmacokinetic study in rats, intravenous and oral
Assay type: in vivo
REPORTED CONDITIONS: male, Sprague-Dawley, plasma; rat, oral, 10 mg/kg
PROPERTY LABEL: half-life

| SMILES REPR | RESULT |
| --- | --- |
| CC(C)(CO)c1cc(NC(=O)Nc2ccc(-c3cn4c(n3)sc3cc(OCCN5CCOCC5)ccc34)cc2)no1 | 222 min |
